Test system: blackgrass
Test Details: Test B pre/postemergence blackgrass
Format: in vivo, Alopecurus myosuroides
Applied Conditions: Postemergence, Rate 250 g/ha; scale 0 to 10, 0 no effect, 10 complete control
Rule: label 1 for Blackgrass plant response rating not less than 2, label 0 for anything less.

Structure Notation | Label
CC(C)N(C(=O)n1oc(=O)n(-c2ccccc2C(F)(F)F)c1=O)c1ccc(F)cc1 | label 0
Cc1cccc(C(C)C)c1-n1c(=O)on(C(=O)N(c2ccc(Cl)cc2)C(C)C)c1=O | label 0
CC(C)N(C(=O)n1oc(=O)n(-c2ccccc2)c1=O)c1ccc(F)cc1 | label 1
Cc1cc(C)c(-n2c(=O)on(C(=O)N(c3ccc(Cl)cc3)C(C)C)c2=O)c(C)c1 | label 1
CC(C)N(C(=O)n1oc(=O)n(C2CCCCC2)c1=O)c1ccccc1 | label 1
CC(C)N(C(=O)n1oc(=O)n(Cc2cccs2)c1=O)c1ccc(F)cc1F | label 0

----------
Tested on: duck salad
Test Details: Test B flood test duck salad
Type: in vivo, Heteranthera limosa
Applied Conditions: Rate 125 g/ha; Postemergence section (flood test species); scale 0 to 10, 0 no effect, 10 complete control
Experimental: At the same time, these crop and weed species were also treated with postemergence applications of test chemicals formulated in the same manner. Plants ranged in height from 2 to 18 cm (1- to 4-leaf stage) for postemergence treatments. […] Treated plants and controls were maintained in a greenhouse for twelve to sixteen days, after which all species were compared to controls and visually evaluated. […]

Structure Notation | Ducksalad plant response rating
CC(C)N(C(=O)n1oc(=O)n(Cc2ccccc2)c1=O)c1ccc(F)cc1 | 0
CCN(CC)C(=O)n1oc(=O)n(-c2cc(Cl)cc(Cl)c2)c1=O | 0
CC(C)N(C(=O)n1oc(=O)n(-c2ccc(Cl)cc2Cl)c1=O)c1ccc(F)cc1 | 0

----------
System: purple nutsedge
Test Details: Test B pre/postemergence purple nutsedge
Format: in vivo, Cyperus rotundus
Applied Conditions: Rate 125 g/ha; Preemergence; scale of 0 to 10 where 0 is no effect and 10 is complete control

Structure Notation | Subject Of Test | Nutsedge plant response rating
CCc1ccc(N(C(=O)n2oc(=O)n(-c3ccccc3C)c2=O)C(C)C)cc1 | purple nutsedge | 0
C=CCn1c(=O)on(C(=O)N(c2ccc(F)cc2)C2CCCCCC2)c1=O | purple nutsedge | 0
CC(C)N(C(=O)n1oc(=O)n(C2CC2)c1=O)c1ccc(F)cc1 | purple nutsedge | 10
COCn1c(=O)on(C(=O)N(c2ccc(F)cc2)C(C)C)c1=O | purple nutsedge | 0
CC(C)N(C(=O)n1oc(=O)n([C@H](C)c2ccccc2)c1=O)c1ccc(F)cc1F | purple nutsedge | 0
Cc1ccccc1-n1c(=O)on(C(=O)N(c2ccc3c(c2)CCC3)C(C)C)c1=O | purple nutsedge | 0

----------
Test system: rape
Test Details: Test B pre/postemergence rape
Type: in vivo, Brassica napus
Applied Conditions: Postemergence, Rate 500 g/ha; scale 0 to 10, 0 is no effect, 10 is complete control

Structure Notation | Subject Of Test | Plant response rating, Rape
CC(C)N(C(=O)n1oc(=O)n(CCC(F)(F)F)c1=O)c1ccc(F)cc1F | rape | 8
CC(C)C(=O)Cn1c(=O)on(C(=O)N(c2ccccc2)C(C)C)c1=O | rape | 0
CC(C)N(C(=O)n1oc(=O)n(CCCCF)c1=O)c1ccc(Cl)cc1 | rape | 5
CC(C)N(C(=O)n1oc(=O)n(CC2=NCCO2)c1=O)c1ccccc1 | rape | 0
CC(Cl)=CCn1c(=O)on(C(=O)N(c2ccc(F)cc2F)C(C)C)c1=O | rape | 8

----------
Test system: surinam grass
Test Details: Test B pre/postemergence surinam grass
Type: in vivo, Brachiaria decumbens
Applied Conditions: Preemergence, Rate 125 g/ha; 0 is no effect, 10 is complete control
Parameter: B. signalgrass plant response rating (0 to 10 scale)

Compound | Subject Of Test | Result Value
CC1CCCCC1n1c(=O)on(C(=O)N(c2ccccc2)C(C)C)c1=O (centres unmarked) [Compound 162] | surinam grass | 2
CC(C)N(C(=O)n1oc(=O)n(-c2cnn(C)c2)c1=O)c1ccccc1 [Compound 123] | surinam grass | 0
CC(C)N(Cc1ccccc1)C(=O)n1oc(=O)n(C(C)C)c1=O [Compound 165] | surinam grass | 4
CC(C)N(C(=O)n1oc(=O)n(-c2ccc(OC(F)(F)F)cc2)c1=O)c1ccc(F)cc1 [Compound 202] | surinam grass | 0
CCN(CC)C(=O)n1oc(=O)n(Cc2ccccc2)c1=O [Compound 152] | surinam grass | 4
Cc1nsc(C)c1-n1c(=O)on(C(=O)N(c2ccc(F)cc2)C(C)C)c1=O [Compound 157] | surinam grass | 0
CC(C)N(C(=O)n1oc(=O)n([C@@H](C)c2ccccc2)c1=O)c1ccccc1 [Compound 168] | surinam grass | 2
CC(C)N(C(=O)n1oc(=O)n(N(C)C)c1=O)c1ccc(F)cc1 [Compound 170] | surinam grass | 9

----------
System: surinam grass
Test Details: Test B pre/postemergence surinam grass
Assay type: in vivo, Brachiaria decumbens
Applied Conditions: Rate 125 g/ha; Postemergence; scale 0 to 10, 0 no effect, 10 complete control

Structure Notation | B. signalgrass plant response rating
CC(C)N(C(=O)n1oc(=O)n(Cc2ccccc2)c1=O)c1ccc(F)cc1F | 0
CCN(CC)C(=O)n1oc(=O)n(-c2c(C)cccc2C)c1=O | 0
CCN(C(=O)n1oc(=O)n(-c2ccccc2OC)c1=O)C1CCCCC1 | 0
CC(C)N(C(=O)n1oc(=O)n(-c2ccc(Cl)cc2Cl)c1=O)c1ccc(F)cc1 | 0
CCCn1c(=O)on(C(=O)N(c2ccccc2)C(C)C)c1=O | 5

----------
System: blackgrass
Test Details: Test B pre/postemergence blackgrass
Assay type: in vivo, Alopecurus myosuroides
Applied Conditions: Preemergence, Rate 125 g/ha; scale 0 to 10 (0 no effect, 10 complete control)
Description: […] At the same time, these crop and weed species were also treated with postemergence applications of test chemicals formulated in the same manner. […] Treated plants and controls were maintained in a greenhouse for twelve to sixteen days, after which all species were compared to controls and visually evaluated. […]
# Plant response rating, Blackgrass annotations

Compound | Plant response rating, Blackgrass
CC(C)N(C(=O)n1oc(=O)n(-c2ccc(Cl)cc2Cl)c1=O)c1ccc(F)cc1 [Compound 7] | 0
CC(C)N(C(=O)n1oc(=O)n(Cc2ccccc2)c1=O)c1ccc(F)cc1 [Compound 78] | 4
Cc1cccc(C(C)C)c1-n1c(=O)on(C(=O)N(c2ccc(F)cc2)C(C)C)c1=O [Compound 65] | 0
CC(C)N(C(=O)n1oc(=O)n(-c2cnn(C)c2Cl)c1=O)c1ccc(F)cc1 [Compound 97] | 1

----------
Tested on: corn
Test Details: Test B pre/postemergence corn
Assay type: in vivo, Zea mays
Applied Conditions: Preemergence, Rate 250 g/ha; scale of 0 to 10 where 0 is no effect and 10 is complete control
Parameter: Corn plant response rating

Compound | Result Value
CC(C)N(C(=O)n1oc(=O)n(-c2cccnc2)c1=O)c1ccc(F)cc1 [Compound 234] | 0
CCCCc1ccc(N(C(=O)n2oc(=O)n(-c3ccccc3C)c2=O)C(C)C)cc1 [Compound 229] | 0
CC(C)=CCCC(C)=CCn1c(=O)on(C(=O)N(c2ccc(F)cc2)C(C)C)c1=O [Compound 262] | 0

----------
# Morningglory plant response rating per record follows
Test system: morningglory
Test Details: Test B pre/postemergence morningglory
Type: in vivo, Ipomoea hederacea
Applied Conditions: Rate 500 g/ha, Postemergence; scale 0 to 10, 0 no effect, 10 complete control
Parameter: Morningglory plant response rating

Compound | Parameter | Result Value
CC(C)=CCCC(C)=CCn1c(=O)on(C(=O)N(c2ccc(F)cc2)C(C)C)c1=O | Morningglory plant response rating | 7
Cc1cc(C)c(-n2c(=O)on(C(=O)N(c3ccc(Cl)cc3)C(C)C)c2=O)c(C)c1 | Morningglory plant response rating | 8
CC(C)N(C(=O)n1oc(=O)n(-c2cnn(C)c2)c1=O)c1ccccc1 | Morningglory plant response rating | 10
COC(=O)CCCn1c(=O)on(C(=O)N(c2ccc(F)cc2)C(C)C)c1=O | Morningglory plant response rating | 8
CCOC(=O)C(C)N(C(=O)n1oc(=O)n(CC)c1=O)c1ccc(F)cc1 (stereo not shown) | Morningglory plant response rating | 0
CC(C)N(C(=O)n1oc(=O)n(-c2cccnc2)c1=O)c1ccc(F)cc1 | Morningglory plant response rating | 2
CC(C)N(C(=O)n1oc(=O)n(-c2ccsc2)c1=O)c1ccc(F)cc1 | Morningglory plant response rating | 7

----------
Test system: surinam grass
Test Details: Test B pre/postemergence surinam grass
Assay type: in vivo, Brachiaria decumbens
Applied Conditions: Preemergence, Rate 125 g/ha; scale 0 to 10, 0 is no effect, 10 is complete control
Each entry below carries its reported B. signalgrass plant response rating.

Compound | B. signalgrass plant response rating
CC(C)C(=O)Cn1c(=O)on(C(=O)N(c2ccccc2)C(C)C)c1=O | 5
CC(Cl)=CCn1c(=O)on(C(=O)N(c2ccc(F)cc2F)C(C)C)c1=O | 6
CC(C)N(C(=O)n1oc(=O)n(C(C)C(=O)c2ccccc2)c1=O)c1ccccc1 (stereo not shown) | 0
CC(C)N(C(=O)n1oc(=O)n(CC2OCCO2)c1=O)c1ccc(F)cc1F | 9

Where do the numbers come from? From patent US6737383B1.
